Origin of values: patent US20250281479A1

Test: first-in-human single ascending dose and food-effect study, plasma pharmacokinetics
Assay type: in vivo
Conditions: both sexes, human, plasma, po, 150 mg, plasma NRL-1049; mean; 150 mg NRL-1049 single oral, Fasted, Cohort 3, N = 6; read-out: Cmax
REPORTED_ENDPOINT: Cmax (ng/mL)
Numbers only, in ng/mL.

Consider C[C@@H](N)C1CCN(S(=O)(=O)c2cccc3cnccc23)CC1 [NRL-1049] . Its measured Cmax is 34.9

====

Assay: first-in-human single ascending dose and food-effect study, plasma pharmacokinetics
Format: in vivo
Conditions: both sexes, human, plasma, oral, range over dose range 25 to 250 mg NRL-1049, fasting state; read-out: mean Cmax
REPORTED_ENDPOINT: Cmax

MOLECULE | Cmax
C[C@@H](N)C1CCN(S(=O)(=O)c2cccc3c(O)nccc23)CC1 [NRL-2017, 1-hydroxy NRL-1049] | 54.2 to 1520 ng/mL

Let us move to another entry and its Cmax.
Consider "C[C@@H](N)C1CCN(S(=O)(=O)c2cccc3cnccc23)CC1" . Its measured Cmax is 3.66 to 58 ng/mL
